Biological target: T1, human ST2L extracellular domain with C-terminal His6 tag (human, UniProt Q01638 19-328)
T1 construct: also called huST2L-ECD; ST2L-ECD
T1 sequence: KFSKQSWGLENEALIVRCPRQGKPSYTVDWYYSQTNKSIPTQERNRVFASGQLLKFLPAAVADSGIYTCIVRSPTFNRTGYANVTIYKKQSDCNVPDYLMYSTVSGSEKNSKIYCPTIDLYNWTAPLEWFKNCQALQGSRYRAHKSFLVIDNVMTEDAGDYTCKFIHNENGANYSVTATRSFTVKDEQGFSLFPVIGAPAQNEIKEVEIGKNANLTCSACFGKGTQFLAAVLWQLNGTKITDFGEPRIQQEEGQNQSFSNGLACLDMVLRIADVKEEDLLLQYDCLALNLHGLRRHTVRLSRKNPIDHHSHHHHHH
Assay: SPR, mAb captured, ST2L-ECD in solution
assay-metric: pKd
Formally, pKd is defined as -log10 of the concentration c, with c in mol/L.

Consider STLM214 (antibody, V domains shown, frameworks VH3-23 / Vk-L6) VH: EVQLLESGGGLVQPGGSLRLSCAASGFTFSSYDMFWVRQAPGKGLEWVSDIKGEGGRTAYADSVKGRFTISRDNSKNTLYLQMNSLRAEDTAVYYCARDPWSTEGSFFVLDYWGQGTLVTVSS VL: EIVLTQSPATLSLSPGERATLSCRASQSVDDDLAWYQQKPGQAPRLLIYDASNRATGIPARFSGSGSGTDFTLTISSLEPEDFAVYYCQQYIDAPLTFGQGTKVEIK . Its measured pKd is 10.48

The binder STLM213 (antibody, V domains shown, frameworks VH3-23 / Vk-L6) VH: EVQLLESGGGLVQPGGSLRLSCAASGFTFSFYDMIWVRQAPGKGLEWVSTIRGEGGDTNYADSVKGRFTISRDNSKNTLYLQMNSLRAEDTAVYYCARDPWSTEGSFFVLDYWGQGTLVTVSS VL: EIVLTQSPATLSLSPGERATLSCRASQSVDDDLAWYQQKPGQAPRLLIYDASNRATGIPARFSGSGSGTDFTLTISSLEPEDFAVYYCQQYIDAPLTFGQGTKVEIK showed pKd equal to 10.85

For this binder ( STLM107 (antibody, V domains shown, frameworks VH3-23 / Vk-L6) VH: EVQLLESGGGLVQPGGSLRLSCAASGFTFSDYAMFWVRQAPGKGLEWVSAIEGEGGETNYADSVKGRFTISRDNSKNTLYLQMNSLRAEDTAVYYCARDPWSTEGSFFVLDYWGQGTLVTVSS VL: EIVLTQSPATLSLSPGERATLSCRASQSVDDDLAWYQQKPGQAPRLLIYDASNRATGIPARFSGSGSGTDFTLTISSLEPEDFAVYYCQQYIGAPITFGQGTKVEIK ), measured pKd is 10.92

Record summary for STLM212 (antibody, V domains shown, frameworks VH3-23 / Vk-L6) VH: EVQLLESGGGLVQPGGSLRLSCAASGFTFSVYDMIWVRQAPGKGLEWVSTIRGEGGGTYYADSVKGRFTISRDNSKNTLYLQMNSLRAEDTAVYYCARDPWSTEGSFFVLDYWGQGTLVTVSS VL: EIVLTQSPATLSLSPGERATLSCRASQSVDDDLAWYQQKPGQAPRLLIYDASNRATGIPARFSGSGSGTDFTLTISSLEPEDFAVYYCQQYNDAITFGQGTKVEIK : reported pKd = 10.49
